Target: human recombinant ATX (Homo sapiens, UniProt Q13822)
Test: Autotaxin (ATX) activity Quanta Red assay
Type: biochemical
Conditions: read-out: Activity (ATX activity, Quanta Red assay; IC50)
# maps each entry to its pIC50
Units for pIC50: none; it is -log10 of a concentration expressed in mol/L.

* C[C@H](NC(=O)CCc1nc2ccncc2n1Cc1ccc(F)cc1)c1ccccc1 | 7.68

## Input Entry under review: `C[C@H](NC(=O)CCc1nc2cccnc2n1Cc1ccc(F)cc1)c1ccc(N2CCOCC2)cc1` . Reported pIC50?
## Output 7.89

## Input Entry under review: `O=C(CCc1nc2cccnc2n1Cc1ccc(OC(F)(F)F)cc1)N[C@@H](Cc1ccc(O)cc1)C(=O)O` . Reported pIC50?
## Output 6.33

###

Molecular target: human recombinant ATX (Homo sapiens, UniProt Q13822)
Assay: Autotaxin (ATX) activity Quanta Red assay
Assay type: biochemical
Details: read-out: Activity (ATX activity, Quanta Red assay; IC50)
ENDPOINT_LABEL: IC50 (nM)
Quick note: give the figure in nM, leave out the unit.

Please review the entries below; each comes with its answer.
• CCC[C@H](NC(=O)CCc1nc2ccncc2n1Cc1ccc(F)cc1)c1ccccc1 = 133
• CC[C@H](NC(=O)CCc1nc2ccncc2n1Cc1ccc(F)cc1)c1ccccc1 = 14
• O=C(CCc1nc2cccnc2n1Cc1ccc(F)cc1)N[C@H](CO)c1ccccc1 = 144

Below: the item to evaluate.
## Input Entry under review: `C[C@H](NC(=O)CCc1cc2cc(F)cnc2n1Cc1ccc(Cl)cc1)c1ccc(F)cc1` . Reported IC50?
## Output 14

###

Molecular target: human recombinant ATX (Homo sapiens, UniProt Q13822)
Assay: Autotaxin (ATX) activity Quanta Red assay
Format: biochemical
Conditions: read-out: Activity (ATX activity, Quanta Red assay; IC50)
ENDPOINT_LABEL: IC50 (nM)
Quick note: give the figure in nM, leave out the unit.

Please review the entries below; each comes with its answer.
• C[C@H](NC(=O)CCc1nc2cccnc2n1Cc1ccc(O)cc1)c1ccc(F)cc1 [Example 155] = 254
• CC(C)(C)OC(=O)N1CCC(CNC(=O)CCc2nc3ccncc3n2Cc2ccc(OC(F)(F)F)cc2)CC1 [Example 135] = 1570
• C[C@H](NC(=O)CCc1nc2cccnc2n1Cc1ccc(F)c(F)c1)c1ccccc1 [Example 86] = 5

## Input Entry under review: COc1ccc(Cn2c(CCC(=O)NCc3ccc(F)c(F)c3)nc3cccnc32)cc1 [Example 107] . Reported IC50?
## Output 102

## Input Entry under review: C[C@H](NC(=O)NCc1nc2cccnc2n1Cc1ccc(F)c(F)c1)c1ccc(N2CCOCC2)cc1 [Example 163] . Reported IC50?
## Output 309

## Input Entry under review: Cc1cnc2c(c1)nc(CCC(=O)NCc1ccc(OCCCN(C)C)cc1)n2Cc1ccc(OC(F)(F)F)cc1 [Example 26] . Reported IC50?
## Output 4

## Input Entry under review: C[C@H](NC(=O)CCc1nc2cccnc2n1Cc1ccc(F)c(F)c1)c1ccc(CN2CCOCC2)cc1 [Example 206] . Reported IC50?
## Output 3

## Input Entry under review: O=C(CCc1nc2cccnc2n1Cc1ccc(OC(F)(F)F)cc1)NCc1ccc(Cl)cc1 [Example 18] . Reported IC50?
## Output 3
